Tested on: L. crescens
MEASUREMENT_CONDITIONS: 10 μM
No end group written: not given here.
MEASUREMENT_KIND: growth inhibition, L. crescens

Take a look at these entries with their results.
GMWKKILGKLIR [compound 134]; <90%
GWWRRTVDKVRNAGRKVAGFASKACGALGH [SEQ ID NO: 13]; greater than 90%
GLWSKIKKAAKTAGKAALGFVNKMV [compound 35]; <90%
FQRYFHRYARFLAKIWKG [compound 62]; <90%
GLLKKIAKKAKKALKKLGY [compound 74]; <90%

Please supply the value of reported growth inhibition, L. crescens for the item FFRNLWKGAKAAFRAGHAAWRA [compound 41]
<90%

Please supply the value of reported growth inhibition, L. crescens for the item KFWSLLKKALRLWANVL [compound 76]
99.76%

Please supply the value of reported growth inhibition, L. crescens for the item WLNALLHHGYKRKFH [compound 93]
<90%

Please supply the value of reported growth inhibition, L. crescens for the item RKYVRFLHRWVKYFRAYL [compound 47]
<90%

Please supply the value of reported growth inhibition, L. crescens for the item KWAVRIIRKFIKGFIS [compound 88]
<90%

Please supply the value of reported growth inhibition, L. crescens for the item QKRPRVRLSAWKKIWKPGIKKWIK [compound 21]
<90%

Please supply the value of reported growth inhibition, L. crescens for the item GILKTIKSIASKLKRKAK [compound 85]
<90%

Please supply the value of reported growth inhibition, L. crescens for the item GWKDWAKKAGGWLKKKGPGMAKAALKAAMQ [compound 2]
<90%

Please supply the value of reported growth inhibition, L. crescens for the item WWKAAAKAAAKWW [compound 117]
<90%

Please supply the value of reported growth inhibition, L. crescens for the item KKFLHSAKKWLKAFVKLFKNW [compound 33]
96.12%

Please supply the value of reported growth inhibition, L. crescens for the item LNWGALLKHLLK [compound 139]
<90%

Please supply the value of reported growth inhibition, L. crescens for the item KILKRLAAKIKKIL [compound 113]
<90%

Please supply the value of reported growth inhibition, L. crescens for the item KFWSLLKKALRLWANVL [SEQ ID NO: 76]
greater than 90%

Please supply the value of reported growth inhibition, L. crescens for the item RFRRLFRIRVRVLKKI [compound 72]
<90%

Please supply the value of reported growth inhibition, L. crescens for the item GLLKKWLKKWKEFKRIVGY [compound 57]
<90%

Please supply the value of reported growth inhibition, L. crescens for the item GLLSNVAGLLKQFAKGGVNAVLNPK [compound 45]
<90%

Please supply the value of reported growth inhibition, L. crescens for the item FRIRVRVKWKLFKKI [compound 81]
<90%

Please supply the value of reported growth inhibition, L. crescens for the item KFFKRLLKSVRRAVKKFRKKPRLIGLSTLL [compound 8]
<90%

Please supply the value of reported growth inhibition, L. crescens for the item SWKSMAKKLKEYMEKLKQRA [compound 50]
<90%

Please supply the value of reported growth inhibition, L. crescens for the item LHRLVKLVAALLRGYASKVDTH [compound 53]
<90%

Please supply the value of reported growth inhibition, L. crescens for the item LRFLKKILKHLF [compound 120]
<90%
